Experiment: Plasma PK, noncompartmental analysis
Type: in vivo, human
Settings: human, plasma, iv, 80 mg/m2, t1/2, Day 1 (no onalespib), 80 mg/m^2 paclitaxel IV, DL3; median (range)
RECORDED_ENDPOINT: half-life

Summary for this compound, CC(=O)O[C@H]1C(=O)[C@@]2(C)[C@H]([C@H](OC(=O)c3ccccc3)[C@]3(O)C[C@H](OC(=O)[C@H](O)[C@@H](NC(=O)c4ccccc4)c4ccccc4)C(C)=C1C3(C)C)[C@]1(OC(C)=O)CO[C@@H]1C[C@@H]2O [paclitaxel] : half-life is 9.06 h

* * *

Test: Plasma PK, noncompartmental analysis
Type: in vivo, human
Details: human, plasma, iv, Cmax, Day 8 (with 80 mg/m^2 paclitaxel), DL3, onalespib 200 mg/m^2 IV; geometric mean ± SD
RECORDED_ENDPOINT: Cmax (µM)
Give bare numbers, in µM.

Summary for this molecule, CC(C)c1cc(C(=O)N2Cc3ccc(CN4CCN(C)CC4)cc3C2)c(O)cc1O [onalespib] : Cmax is 4.64

* * *

Assay: Plasma PK, noncompartmental analysis
Format: in vivo, human
Conditions: human, plasma, iv, 120 mg/m2, AUCinf, Day 7 (no paclitaxel), DL1, onalespib 120 mg/m^2 IV; geometric mean ± SD
RECORDED_ENDPOINT: AUC(0-inf)
Enter the number, and then the unit.

Summary for this molecule, CC(C)c1cc(C(=O)N2Cc3ccc(CN4CCN(C)CC4)cc3C2)c(O)cc1O [onalespib] : AUC(0-inf) is 6.72 µM·h

* * *

Test: Plasma PK, noncompartmental analysis
Assay type: in vivo, human
Conditions: human, plasma, iv, 200 mg/m2, t1/2, Day 7 (no paclitaxel), DL3, onalespib 200 mg/m^2 IV; median (range)
RECORDED_ENDPOINT: half-life

Summary for this compound, `CC(C)c1cc(C(=O)N2Cc3ccc(CN4CCN(C)CC4)cc3C2)c(O)cc1O` : half-life is 7.32 h

* * *

Assay: Plasma PK, noncompartmental analysis
Type: in vivo, human
Details: human, plasma, iv, 260 mg/m2, t1/2, Day 7 (no paclitaxel), DL4, onalespib 260 mg/m^2 IV; median (range)
RECORDED_ENDPOINT: half-life (h)
Answers are plain numbers, in h.

Summary for this compound, `CC(C)c1cc(C(=O)N2Cc3ccc(CN4CCN(C)CC4)cc3C2)c(O)cc1O` : half-life is 6.83

* * *

Test: Plasma PK, noncompartmental analysis
Type: in vivo, human
Details: human, plasma, iv, 260 mg/m2, Cmax, Day 7 (no paclitaxel), DL4, onalespib 260 mg/m^2 IV; geometric mean ± SD
RECORDED_ENDPOINT: Cmax (µM)
Give bare numbers, in µM.

Summary for this compound, CC(C)c1cc(C(=O)N2Cc3ccc(CN4CCN(C)CC4)cc3C2)c(O)cc1O [onalespib] : Cmax is 5.36

* * *

Assay: Plasma PK, noncompartmental analysis
Type: in vivo, human
Conditions: human, plasma, intravenous, 80 mg/m^2, Mean AUCinf, range across DLs, single agent, cycle 1, day 1, 80 mg/m^2
RECORDED_ENDPOINT: AUC(0-inf)

Summary for this compound, `CC(=O)O[C@H]1C(=O)[C@@]2(C)[C@H]([C@H](OC(=O)c3ccccc3)[C@]3(O)C[C@H](OC(=O)[C@H](O)[C@@H](NC(=O)c4ccccc4)c4ccccc4)C(C)=C1C3(C)C)[C@]1(OC(C)=O)CO[C@@H]1C[C@@H]2O` : AUC(0-inf) is 5.59 to 7.75 µM·h

* * *

Assay: Plasma PK, noncompartmental analysis
Type: in vivo, human
Conditions: human, plasma, iv, t1/2, Day 8 (with 80 mg/m^2 paclitaxel), DL3, onalespib 200 mg/m^2 IV; median (range)
RECORDED_ENDPOINT: half-life (h)
Give bare numbers, in h.

Summary for this compound, `CC(C)c1cc(C(=O)N2Cc3ccc(CN4CCN(C)CC4)cc3C2)c(O)cc1O` : half-life is 9.62

* * *

Assay: Plasma PK, noncompartmental analysis
Format: in vivo, human
Conditions: human, plasma, iv, AUCinf, Day 8 (with 80 mg/m^2 paclitaxel), DL1, onalespib 120 mg/m^2 IV; geometric mean ± SD
RECORDED_ENDPOINT: AUC(0-inf)

Summary for this molecule, `CC(C)c1cc(C(=O)N2Cc3ccc(CN4CCN(C)CC4)cc3C2)c(O)cc1O` : AUC(0-inf) is 6.1 µM·h

* * *

Test: Plasma PK, noncompartmental analysis
Type: in vivo, human
Settings: human, plasma, iv, Cmax, Day 8, 80 mg/m^2 paclitaxel IV with onalespib 200 mg/m^2, DL3; geometric mean ± SD
RECORDED_ENDPOINT: Cmax (µM)
One number for each entry, in µM.

Summary for this molecule, CC(=O)O[C@H]1C(=O)[C@@]2(C)[C@H]([C@H](OC(=O)c3ccccc3)[C@]3(O)C[C@H](OC(=O)[C@H](O)[C@@H](NC(=O)c4ccccc4)c4ccccc4)C(C)=C1C3(C)C)[C@]1(OC(C)=O)CO[C@@H]1C[C@@H]2O [paclitaxel] : Cmax is 4.23

* * *

Assay: Plasma PK, noncompartmental analysis
Format: in vivo, human
Conditions: human, plasma, iv, t1/2, Day 8 (with 80 mg/m^2 paclitaxel), DL4, onalespib 260 mg/m^2 IV; median (range)
RECORDED_ENDPOINT: half-life
Enter the number, and then the unit.

Summary for this molecule, CC(C)c1cc(C(=O)N2Cc3ccc(CN4CCN(C)CC4)cc3C2)c(O)cc1O [onalespib] : half-life is 9.11 h

* * *

Assay: Plasma PK, noncompartmental analysis
Assay type: in vivo, human
Conditions: human, plasma, iv, t1/2, Day 8, 80 mg/m^2 paclitaxel IV with onalespib 260 mg/m^2, DL4; median (range)
RECORDED_ENDPOINT: half-life (h)
Give bare numbers, in h.

Summary for this compound, `CC(=O)O[C@H]1C(=O)[C@@]2(C)[C@H]([C@H](OC(=O)c3ccccc3)[C@]3(O)C[C@H](OC(=O)[C@H](O)[C@@H](NC(=O)c4ccccc4)c4ccccc4)C(C)=C1C3(C)C)[C@]1(OC(C)=O)CO[C@@H]1C[C@@H]2O` : half-life is 10.7

* * *

Experiment: Plasma PK, noncompartmental analysis
Type: in vivo, human
Settings: human, plasma, iv, Cmax, Day 8, 80 mg/m^2 paclitaxel IV with onalespib 120 mg/m^2, DL1; geometric mean ± SD
RECORDED_ENDPOINT: Cmax
Enter the number, and then the unit.

Summary for this molecule, CC(=O)O[C@H]1C(=O)[C@@]2(C)[C@H]([C@H](OC(=O)c3ccccc3)[C@]3(O)C[C@H](OC(=O)[C@H](O)[C@@H](NC(=O)c4ccccc4)c4ccccc4)C(C)=C1C3(C)C)[C@]1(OC(C)=O)CO[C@@H]1C[C@@H]2O [paclitaxel] : Cmax is 2990 nM

* * *

Assay: Plasma PK, noncompartmental analysis
Type: in vivo, human
Conditions: Day 1 (no onalespib), 80 mg/m^2 paclitaxel IV, DL4; geometric mean ± SD
RECORDED_ENDPOINT: Cmax (µM)
Numbers only, in µM.

Summary for this molecule, `CC(=O)O[C@H]1C(=O)[C@@]2(C)[C@H]([C@H](OC(=O)c3ccccc3)[C@]3(O)C[C@H](OC(=O)[C@H](O)[C@@H](NC(=O)c4ccccc4)c4ccccc4)C(C)=C1C3(C)C)[C@]1(OC(C)=O)CO[C@@H]1C[C@@H]2O` : Cmax is 4.68

* * *

Assay: Plasma PK, noncompartmental analysis
Format: in vivo, human
Settings: human, plasma, intravenous, mean Cmax, range across all four DLs, cycle 1, day 8, 80 mg/m^2 in combination with onalespib
RECORDED_ENDPOINT: Cmax

Summary for this compound, CC(=O)O[C@H]1C(=O)[C@@]2(C)[C@H]([C@H](OC(=O)c3ccccc3)[C@]3(O)C[C@H](OC(=O)[C@H](O)[C@@H](NC(=O)c4ccccc4)c4ccccc4)C(C)=C1C3(C)C)[C@]1(OC(C)=O)CO[C@@H]1C[C@@H]2O [paclitaxel] : Cmax is 2.99 to 4.23 µM

* * *

Assay: Plasma PK, noncompartmental analysis
Format: in vivo, human
Conditions: human, plasma, iv, Cmax, Day 8 (with 80 mg/m^2 paclitaxel), DL4, onalespib 260 mg/m^2 IV; geometric mean ± SD
RECORDED_ENDPOINT: Cmax
Enter the number, and then the unit.

Summary for this compound, `CC(C)c1cc(C(=O)N2Cc3ccc(CN4CCN(C)CC4)cc3C2)c(O)cc1O` : Cmax is 5.53 µM

* * *

Experiment: Plasma PK, noncompartmental analysis
Type: in vivo, human
Conditions: human, plasma, iv, Cmax, Day 8 (with 80 mg/m^2 paclitaxel), DL1, onalespib 120 mg/m^2 IV; geometric mean ± SD
RECORDED_ENDPOINT: Cmax (nM)
One number for each entry, in nM.

Summary for this compound, `CC(C)c1cc(C(=O)N2Cc3ccc(CN4CCN(C)CC4)cc3C2)c(O)cc1O` : Cmax is 2740

* * *

Assay: Plasma PK, noncompartmental analysis
Assay type: in vivo, human
Details: human, plasma, iv, 200 mg/m2, Cmax, Day 7 (no paclitaxel), DL3, onalespib 200 mg/m^2 IV; geometric mean ± SD
RECORDED_ENDPOINT: Cmax (µM)
Answers are plain numbers, in µM.

Summary for this compound, CC(C)c1cc(C(=O)N2Cc3ccc(CN4CCN(C)CC4)cc3C2)c(O)cc1O [onalespib] : Cmax is 3.21
